Tested on: WHIM30 (cells of a triple-negative basal-like breast cancer xenograft)
Experiment: cell viability (% of vehicle); higher = less cytotoxic
Settings: 10 µM; 72 h
measurement label: cell viability
// keep it numeric: no unit symbol after the value

Summary: O=C(CCc1ccc(O)cc1)c1c(O)cc(O)cc1OC1OC(CO)C(O)C(O)C1O (configuration not stated) [Phloridzin] , WHIM30, cell viability = 97.2

Summary: NC(CO)(CO)CO.O=C(c1ccccc1)c1ccc2n1CCC2C(=O)O (configuration not stated) [Ketorolac tromethamine salt] , WHIM30, cell viability = 116

Summary: COC(=O)C1=C(C)NC(C)=C(C(=O)OC)C1c1ccccc1[N+](=O)[O-] [Nifedipine] , WHIM30, cell viability = 111

Summary: `Cc1ccc(NC(=O)C2(c3ccc4c(c3)OC(F)(F)O4)CC2)nc1-c1cccc(C(=O)O)c1` , WHIM30, cell viability = 157

Summary: CN1C2CCCC1CC(NC(=O)c1nn(C)c3ccccc13)C2.Cl (configuration not stated) [Granisetron HCl] , WHIM30, cell viability = 115

Summary: OCCN(CCO)c1nc(N2CCCCC2)c2nc(N(CCO)CCO)nc(N3CCCCC3)c2n1 [Dipyridamole] , WHIM30, cell viability = 142

Summary: CC(C)CC(N)=O [Isovaleramide] , WHIM30, cell viability = 96.1

Summary: COc1cc2nc(N3CCN(C(=O)c4ccco4)CC3)nc(N)c2cc1OC.Cl [Prazosin HCl] , WHIM30, cell viability = 114

====

System: HCI13 (cells of an ER-positive luminal breast cancer xenograft)
Test: cell viability (% of vehicle); higher = less cytotoxic
Conditions: 10 µM; 72 h
cell viability listing for selected compounds.

Look over these answered cases.
C#CCC(Cc1cnc2nc(N)nc(N)c2n1)c1ccc(C(=O)NC(CCC(=O)O)C(=O)O)cc1 (stereo unspecified) [Pralatrexate]	157
CCC1C(O)C2C3CCC(C(C)CCC(=O)O)C3(C)CCC2C2(C)CCC(O)CC12 (stereo unspecified) [Obeticholic Acid]	81.8
CCC1=C(C)CN(C(=O)NCCc2ccc(S(=O)(=O)NC(=O)NC3CCC(C)CC3)cc2)C1=O (stereo unspecified) [Glimepiride]	93.2
CCn1cc(C(=O)O)c(=O)c2cnc(N3CCCC3)nc21 [Piromidic Acid]	171
NCCC(O)C(=O)NC1CC(N)C(OC2OC(CN)C(O)C(O)C2O)C(O)C1OC1OC(CO)C(O)C(N)C1O (stereo unspecified) [Amikacin]	106

# next compound below
Sure, the documented cell viability for CC(C)c1c(C(=O)Nc2ccccc2)c(-c2ccccc2)c(-c2ccc(F)cc2)n1CCC(O)CC(O)CC(=O)[O-].CC(C)c1c(C(=O)Nc2ccccc2)c(-c2ccccc2)c(-c2ccc(F)cc2)n1CCC(O)CC(O)CC(=O)[O-].[Ca+2] (stereo unspecified) [Atorvastatin Calcium] is 95.7

====

Test system: HCI13
Test: cell viability (% of vehicle); higher = less cytotoxic
Details: 10 µM; 72 h
cell viability listing for selected compounds.
// keep it numeric: no unit symbol after the value

Sure, the documented cell viability for Nc1c(CC(=O)[O-])cccc1C(=O)c1ccccc1.O.[Na+] [Amfenac Sodium Monohydrate] is 114

Sure, the documented cell viability for Clc1ccc(C(Cn2ccnc2)OCc2c(Cl)cccc2Cl)c(Cl)c1.O=[N+]([O-])O (configuration not stated) [Isoconazole nitrate] is 54.2

Sure, the documented cell viability for CN(C)CCCN1c2ccccc2CCc2ccccc21.Cl [Imipramine (hydrochloride)] is 95.1

Sure, the documented cell viability for `COc1cc2c(Oc3ccc(NC(=O)C4(C(=O)Nc5ccc(F)cc5)CC4)cc3F)ccnc2cc1OCCCN1CCOCC1` is 60.2

Sure, the documented cell viability for `CC(C)(C)c1cc(C(C)(C)C)c(NC(=O)c2c[nH]c3ccccc3c2=O)cc1O` is 29.5

Sure, the documented cell viability for CCCNC(=O)NS(=O)(=O)c1ccc(Cl)cc1 [Chlorpropamide] is 81.8

Sure, the documented cell viability for `CS(=O)(=O)N1CCN(Cc2cc3nc(-c4cccc5[nH]ncc45)nc(N4CCOCC4)c3s2)CC1` is 90.7

====

Tested on: HCI09 (cells of a triple-negative luminal androgen receptor type breast cancer xenograft)
Experiment: cell viability (% of vehicle); higher = less cytotoxic
Conditions: 10 µM; 72 h
cell viability listing for selected compounds.
// keep it numeric: no unit symbol after the value

Look over these answered cases.
CCOC(=O)C(CCc1ccccc1)NC(C)C(=O)N1C(=O)N(C)CC1C(=O)O.Cl (configuration not stated) [Imidapril HCl]	99.8
CC(C(=O)O)c1ccc(C(=O)c2cccs2)cc1 (configuration not stated) [Suprofen]	97.9
CC(O)C1C(=O)N2C(C(=O)O)=C(SC3CNC(CNS(N)(=O)=O)C3)C(C)C12.O (configuration not stated) [Doripenem Hydrate]	95.9
Clc1ccc(CSC(Cn2ccnc2)c2ccc(Cl)cc2Cl)cc1.O=[N+]([O-])O (configuration not stated) [Sulconazole Nitrate]	24.5
COc1cc2c(cc1OC)CN(CCc1ccc(NC(=O)c3cccc4c(=O)c5cccc(OC)c5[nH]c34)cc1)CC2 [Elacridar]	71.7
O=C(NC(CO)C(O)c1ccc([N+](=O)[O-])cc1)C(Cl)Cl (configuration not stated) [Chloramphenicol]	102
CC(Cn1cnc2c(N)ncnc21)OCP(=O)(O)O (configuration not stated) [Tenofovir]	103
COc1ccc2cccc(CCNC(C)=O)c2c1 [Agomelatine]	99.7
Cn1c(=O)c2c(ncn2CC(O)CO)n(C)c1=O (configuration not stated) [Dyphylline]	98
CC(C)C(N)C(=O)OCC(CO)OCn1cnc2c(=O)nc(N)[nH]c21.Cl (configuration not stated) [Valganciclovir HCl]	90

Sure, the documented cell viability for `Cc1cnc(Nc2ccc(OCCN3CCCC3)cc2)nc1Nc1cccc(S(=O)(=O)NC(C)(C)C)c1` is 133

Sure, the documented cell viability for O=C(O)c1cc(=O)[nH]c(=O)[nH]1 [Orotic acid] is 88.5

Sure, the documented cell viability for CCCc1nc2c(C)cc(-c3nc4ccccc4n3C)cc2n1Cc1ccc(-c2ccccc2C(=O)O)cc1 [Telmisattan] is 113

====

System: HCI11 (cells of an ER-positive luminal breast cancer xenograft)
Experiment: cell viability (% of vehicle); higher = less cytotoxic
Details: 10 µM; 72 h
Where a name gives a salt, the structure may show the parent alone.
cell viability listing for selected compounds.
// keep it numeric: no unit symbol after the value

Look over these answered cases.
CSc1nc2cc(Oc3cccc(Cl)c3Cl)c(Cl)cc2[nH]1	97.1
CCCCc1oc2ccccc2c1C(=O)c1cc(I)c(OCCN(CC)CC)c(I)c1.Cl [Amiodarone HCl]	75
NS(=O)(=O)c1cc(C(=O)O)c(NCc2ccco2)cc1Cl [Furosemide]	105
C[C@H](C(=O)O)c1ccc(-c2ccccc2)c(F)c1 [(S)-Flurbiprofen]	78.6
COc1nc2ccc(Br)cc2cc1[C@@H](c1ccccc1)[C@@](O)(CCN(C)C)c1cccc2ccccc12 [Bedaquiline fumarate]	80.3
COc1nc(C)nc(Cl)c1NC1=NCCN1	115

Sure, the documented cell viability for CC1(C)SC2C(NC(=O)C(NC(=O)N3CCNC3=O)c3ccccc3)C(=O)N2C1C(=O)[O-].[Na+] (configuration not stated) [Azlocillin sodium salt] is 104

Sure, the documented cell viability for COC(=O)C1C2CC3c4[nH]c5cc(OC)ccc5c4CCN3CC2CC(OC(=O)c2cc(OC)c(OC)c(OC)c2)C1OC (configuration not stated) is 89

Sure, the documented cell viability for CCC1=CC2CN(C1)Cc1c([nH]c3ccccc13)C(C(=O)OC)(c1cc3c(cc1OC)N(C)C1C(O)(C(=O)OC)C(OC(C)=O)C4(CC)C=CCN5CCC31C54)C2 (configuration not stated) is 78.5

Sure, the documented cell viability for `Nc1[nH]c(=O)ncc1F` is 93.1

Sure, the documented cell viability for `Cc1[nH]c(=O)c(C#N)cc1-c1ccncc1` is 102

====

cell viability of combination listing for selected compounds.
Tested on: UCD52 (cells of a triple-negative basal-like breast cancer xenograft)
Assay: cell viability of combination (% of vehicle); higher = less cytotoxic
Details: 1 µM; 72 h; partner dose: 10 nM
// keep it numeric: no unit symbol after the value

Look over these answered cases.
N.N.O=C([O-])C1(C(=O)[O-])CCC1.[Pt+2] [Carboplatin] + CN(C)C/C=C/C(=O)Nc1cc2c(Nc3ccc(F)c(Cl)c3)ncnc2cc1O[C@H]1CCOC1	68.6
CCc1c(Cl)c(O)c(Cl)c(O)c1C(=O)OC1C(C)OC(OCC2=CC=CCC(O)C(C)=CC(CC)C(OC3OC(C)(C)C(OC(=O)C(C)C)C(O)C3O)C(C)=CC(C)=CCC(C(C)O)OC2=O)C(OC)C1O (centres undefined) [Fidaxomicin] + CN(C)C/C=C/C(=O)Nc1cc2c(Nc3ccc(F)c(Cl)c3)ncnc2cc1O[C@H]1CCOC1	81.9
CO[C@H]1C[C@@H]2CC[C@@H](C)[C@@](O)(O2)C(=O)C(=O)N2CCCC[C@H]2C(=O)O[C@H]([C@H](C)C[C@@H]2CC[C@@H](OC(=O)C(C)(CO)CO)[C@H](OC)C2)CC(=O)[C@H](C)/C=C(\C)[C@@H](O)[C@@H](OC)C(=O)[C@H](C)C[C@H](C)/C=C/C=C/C=C/1C [Temsirolimus] + CN(C)C/C=C/C(=O)Nc1cc2c(Nc3ccc(F)c(Cl)c3)ncnc2cc1O[C@H]1CCOC1	40.4

# next compound below
Summary: CCCCCCCCCCCC1=C(O)C(=O)C=C(O)C1=O [Embelin] + CN(C)C/C=C/C(=O)Nc1cc2c(Nc3ccc(F)c(Cl)c3)ncnc2cc1O[C@H]1CCOC1 , UCD52, cell viability of combination = 67.8
